Hey, just so you know, these numbers are from patent US20200199207A1.

Target: T1, nAra h 1 (peanut, UniProt P43238 85-626)
T1 construct: Bought natural allergen; also called naturally extracted Ara h 1
T1 sequence (looked up): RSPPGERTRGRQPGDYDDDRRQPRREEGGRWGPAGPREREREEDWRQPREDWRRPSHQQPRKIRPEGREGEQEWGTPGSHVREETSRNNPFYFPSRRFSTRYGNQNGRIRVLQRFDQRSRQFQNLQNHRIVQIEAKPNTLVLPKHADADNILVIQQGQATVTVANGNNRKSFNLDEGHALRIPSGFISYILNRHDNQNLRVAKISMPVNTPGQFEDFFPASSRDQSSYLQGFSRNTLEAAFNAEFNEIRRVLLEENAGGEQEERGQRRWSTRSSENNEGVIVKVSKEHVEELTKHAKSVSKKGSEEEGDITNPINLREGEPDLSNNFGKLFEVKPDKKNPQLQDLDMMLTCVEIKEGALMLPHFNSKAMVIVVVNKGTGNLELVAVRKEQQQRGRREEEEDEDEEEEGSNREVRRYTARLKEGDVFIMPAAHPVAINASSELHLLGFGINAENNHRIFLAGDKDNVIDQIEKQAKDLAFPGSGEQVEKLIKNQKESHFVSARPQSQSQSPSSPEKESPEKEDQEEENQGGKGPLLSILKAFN
Assay: ELISA, antigen-coated plate
endpoint.label: log10(EC50) (log10 of the value in µg/mL)

{"binder": "h32B10 (antibody, V domains shown, Recombinant human IgG; also called hMAb 32B10) VH: QVQLVQSGAEVKKPGASVKVSCRASGYIFRNFDINWVRQATGQGLEWMGWMSPKSGDTGYAQKFQGRVTMTRDTSINTAYMELSSLTSEDSAVYYCARGVDGTNWGQGTRVTVSS VL: DIVMTQSPDSLGVSLGERATISCKSSQSILDNSNNKNFIAWFQQKPGQPPKLLIYWASARESGVPDRFSGSGSGTEFTLTINSLQAEDVAVYYCYQYYSTPHTFGQGTKLDLR", "log10(EC50)": -2.06}
{"binder": "hm37D5 (antibody, V domains shown, also called 37D5 with mouse Fc; hmMAb 37D5) VH: EEQLVESGGRLLRPGESLSLSCAAVGFNFGDFGMAWVRQPPGKGLEWVAGINWSGHSTGFVDSMKGRLTISRDSAKSSLFLQMNSLRGEDTAVYYCARVGRLCSGDICDSMGAFDLWGQGTMVTVSS VL: DIQMTQSPSTLSASIGDRVTITCRASQTIDNWLAWYQQRPGKAPKLLIYQASSLQSGVSSRFRGSGSGTEFTLTITSLQPDDFATYYCQKSNGYSRTFGQGTKVEIK", "log10(EC50)": -0.94}
{"binder": "hm12G10 (antibody, V domains shown, also called 12G10 with mouse Fc; hmMAb 12G10) VH: EVQLLESGGRLLRPGGSLSLSCVASGFYFGDFGMSWVRQVPGKGLEWVSGIDWSGRSTGYVDSMKGRLTISRDNDKSSLYLQMNDLRGEDTAVYYCARVGRLCSGDSCDSMGAFDLWGQGTMVTVSS VL: DIQLTQSPSTLSASIGDSVTITCRASQNIDNWLAWYQQKPGKAPRLLIYKASSLGSGVSSKFRGSGFGTEFTLTITSLQPDDFATYYCQKSNGYSRTFGQGTKVDIK", "log10(EC50)": -0.71}
{"binder": "h7G6 (antibody, V domains shown, Recombinant human IgG; also called hMAb 7G6) VH: QVQLVESGGGVVQPGRSLRLSCAASGIAFNDYTMHWVRRSPDKGLEWVAAISYGGTNKYYADSVKGRFTISRDSSKNTLFLQMDSLRVEDTAVYYCARDSGYRSLLHWGQGTLVTVSS VL: EIVLTQSPLSLPVTPGEPASISCRSSQSLVHRNGYNYLDWYLQKPGQSPQLLIYMASKRASGVPDRFSGSGSGTEFTLKISRVEAEDVGIYYCMQALQTWTFGQGTKVEVN", "log10(EC50)": -2.72}
{"binder": "h37D5 (antibody, V domains shown, Recombinant human IgG; also called hMAb 37D5) VH: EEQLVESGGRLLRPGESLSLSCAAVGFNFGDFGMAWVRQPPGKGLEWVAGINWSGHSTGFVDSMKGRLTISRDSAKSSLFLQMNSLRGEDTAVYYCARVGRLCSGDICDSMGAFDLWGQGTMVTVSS VL: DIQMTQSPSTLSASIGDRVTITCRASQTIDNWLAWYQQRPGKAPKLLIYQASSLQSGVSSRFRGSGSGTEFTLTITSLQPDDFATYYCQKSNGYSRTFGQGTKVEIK", "log10(EC50)": -0.58}
{"binder": "h4B2 (antibody, V domains shown, Recombinant human IgG; also called hMAb 4B2) VH: QVQLQEAGPRLVKPSQTLSVTCTVSGASITIGGYYWSWIRQHPGKGLEWMGYIYSNGRTYYNPSLKSRIAMSIDTSKNQFSLKLTSVTAADTAIYFCAREAWETPLWGQGTLITVSS VL: DIQMTQSPSSLSASVGDRVTITCQANQDIVNSLNWFQHKPGTAPKVLIYDASKLETGVPSRFSGSGSGTHFTFTISGLQPEDFATYFCQQYENLPHTFGQGTKLEIR", "log10(EC50)": -2.23}
